Origin of measurements: PubChem BioAssay AID1259407

- Tested on: CCRIS mutagenicity, Ames/micronucleus/aberration tests
- assayMethodText: CCRIS mutagenicity studies
- conditionsUsed: Test System: AMES SALMONELLA TYPHIMURIUM; Strain/Indicator: TA97; Metabolic Activation: NONE; Method: STANDARD PLATE
The source made the active and inactive calls. How the calls were made is not given here.
readoutLabel: mutagenic call

Reference set, count: 6
# molecule, readoutLabel, result
measured = [
    ("CC1CS(=O)(=O)CCN1/N=C/c1ccc([N+](=O)[O-])o1 (configuration not stated)", "mutagenic call", "active; positive"),
    ("CC(=O)N[C@@H](CS)C(=O)O", "mutagenic call", "inactive; negative"),
    ("CC=C(C)C(=O)O[C@H]1[C@H](OC(C)=O)[C@]2(CO)[C@H](O)C[C@]3(C)C(=CC[C@@H]4[C@@]5(C)CC[C@@H](O[C@@H]6O[C@H](C(=O)O)[C@@H](O[C@@H]7O[C@H](CO)[C@@H](O)[C@H](O)[C@H]7O)[C@H](O)[C@H]6O[C@@H]6O[C@H](CO)[C@@H](O)[C@H](O)[C@H]6O)[C@](C)(CO)[C@@H]5CC[C@]43C)[C@@H]2CC1(C)C", "mutagenic call", "inactive; negative"),
    ("CSCCC(NC(=O)COc1cc(Cl)c(Cl)cc1Cl)C(=O)O (configuration not stated)", "mutagenic call", "inactive; negative"),
    ("C=CCc1ccc(O)c(O)c1", "mutagenic call", "inactive; negative"),
    ("ClC(Cl)(Cl)Br", "mutagenic call", "active; positive"),
]

For the next question, use this molecule.
Incoming: Look at this molecule and give its reported mutagenic call. `CC(=O)O[C@H]1C(=O)[C@@]2(C)[C@H]([C@H](OC(=O)c3ccccc3)[C@]3(O)C[C@H](OC(=O)[C@H](O)[C@@H](NC(=O)c4ccccc4)c4ccccc4)C(C)=C1C3(C)C)[C@]1(OC(C)=O)CO[C@@H]1C[C@@H]2O`
Outgoing: inactive; negative

---

- Test system: CCRIS mutagenicity, Ames/micronucleus/aberration tests
- assayMethodText: CCRIS mutagenicity studies
- conditionsUsed: Test System: E. COLI; Strain/Indicator: WP2; Metabolic Activation: NONE; Method: STANDARD PLATE
Active and inactive are the calls of the source. No rule for the calls is given here.
Your response should consist of one outcome taken from yes (active), no (inactive)

# compound, testedTarget, className
measured = [
    ("ClCC1CO1 (stereo unspecified)", "CCRIS mutagenicity, Ames/micronucleus/aberration tests", "yes"),
    ("O=C(O)[C@H](O)[C@@H](O)C(=O)O", "CCRIS mutagenicity, Ames/micronucleus/aberration tests", "no"),
    ("CCCCCCCCCCCCCCCC(=O)OC/C=C(C)/C=C/C=C(C)/C=C/C1=C(C)CCCC1(C)C", "CCRIS mutagenicity, Ames/micronucleus/aberration tests", "no"),
    ("CCOC(=O)C1C(C=C(C)C)C1(C)C (stereo unspecified)", "CCRIS mutagenicity, Ames/micronucleus/aberration tests", "no"),
    ("CC1(C)C(C=C(Cl)Cl)C1C(=O)OC(C#N)c1cccc(Oc2ccccc2)c1 (stereo unspecified)", "CCRIS mutagenicity, Ames/micronucleus/aberration tests", "no"),
]

Incoming: Outcome? `C=CC#N`
Outgoing: yes

Incoming: Follow-up item: O=P(O)(O)OCC(O)CO (stereo unspecified)
Outgoing: no

Incoming: Follow-up item: COP(=O)(OC)C(O)C(Cl)(Cl)Cl (stereo unspecified)
Outgoing: yes

---

- System: CCRIS mutagenicity, Ames/micronucleus/aberration tests
- assayMethodText: CCRIS mutagenicity studies
- conditionsUsed: Test System: AMES SALMONELLA TYPHIMURIUM; Strain/Indicator: TA100; Metabolic Activation: RAT, LIVER, S-9; Method: STANDARD PLATE
- Excerpt: The CCRIS database contains chemical records with carcinogenicity, mutagenicity, tumor promotion, and tumor inhibition test results. It was developed by the National Cancer Institute (NCI). Data are derived from studies cited in primary journals, current awareness tools, NCI reports, and other sources. Test results have been reviewed by experts in carcinogenesis and mutagenesis. CCRIS provides historical information from the years 1985 - 2011. It is no longer updated. […]
The source made the active and inactive calls. How the calls were made is not given here.
Your response should consist of one outcome taken from active, inactive

The following compounds have reported results that may help.
# chemSmiles, className
rows = [
    ("CN(Cc1ccccc1)N=O", "active"),
    ("CCCCOS(=O)(=O)c1ccc(C)cc1", "active"),
    ("Cc1ccc(C)c(N=Nc2c(O)ccc3ccccc23)c1", "inactive"),
    ("CN(C)CCCn1cc[n+](C)c1/C=N/O", "inactive"),
    ("C#CCOCC[n+]1ccccc1/C=N/O", "inactive"),
]

Now examine the next entry.
Incoming: Outcome? `O=[N+]([O-])c1c2c(cc3ccccc13)[C@@H](O)[C@H](O)C=C2`
Outgoing: inactive

---

- Test system: CCRIS mutagenicity, Ames/micronucleus/aberration tests
- assayMethodText: CCRIS mutagenicity studies
- conditionsUsed: Test System: AMES SALMONELLA TYPHIMURIUM; Strain/Indicator: TA98; Metabolic Activation: NONE; Method: STANDARD PLATE
- Source text: The CCRIS database contains chemical records with carcinogenicity, mutagenicity, tumor promotion, and tumor inhibition test results. It was developed by the National Cancer Institute (NCI). Data are derived from studies cited in primary journals, current awareness tools, NCI reports, and other sources. Test results have been reviewed by experts in carcinogenesis and mutagenesis. CCRIS provides historical information from the years 1985 - 2011. It is no longer updated. […]
The source made the active and inactive calls. How the calls were made is not given here.
Your response should consist of one outcome taken from yes = active, no = inactive

The following compounds have reported results that may help.
# compound, className
records = [
    ("CNC(=O)Oc1ccc2c(c1)[C@]1(C)CCN(C)[C@@H]1N2C", "no"),
    ("CCN(CC)CCNc1ccc(C)c2sc3ccccc3c(=O)c12", "no"),
    ("CCOC(=O)c1[nH]c2ccccc2c1N=Cc1ccc(NC(C)=O)cc1", "no"),
    ("CN(C)c1ccc(N=Nc2cccnc2)cc1", "no"),
    ("CN(C)c1ccc([C@H]2C[C@]3(C)[C@@H](CC[C@]3(O)CCCO)[C@@H]3CCC4=CC(=O)CCC4=C32)cc1", "no"),
    ("Cc1ccc2nc(-c3ccc(N)cc3)sc2c1", "no"),
]

Now examine the next entry.
Incoming: Outcome? `ClC(Cl)C(Cl)Cl`
Outgoing: yes

---

- Tested on: CCRIS mutagenicity, Ames/micronucleus/aberration tests
- assayMethodText: CCRIS mutagenicity studies
- conditionsUsed: End Point: IN VITRO CHROMOSOMAL ABERRATIONS; Test System: CHINESE HAMSTER OVARY CELLS; Metabolic Activation: RAT, LIVER, S-9, AROCLOR 1254
Calls of active or inactive are those of the source. No rule for the calls is given here.
Your response should consist of one outcome taken from active, inactive

# compound, testedTarget, className
data = [
    ("CC(=O)OC/C=C(\\C)CCC=C(C)C", "CCRIS mutagenicity, Ames/micronucleus/aberration tests", "inactive"),
]

Now examine the next entry.
Incoming: Outcome? CN1CCC(CN2c3ccccc3Sc3ccccc32)C1 (centres undefined)
Outgoing: inactive

---

- Test system: CCRIS mutagenicity, Ames/micronucleus/aberration tests
- assayMethodText: CCRIS mutagenicity studies
- conditionsUsed: Test System: AMES SALMONELLA TYPHIMURIUM; Strain/Indicator: YG1029; Metabolic Activation: RAT, LIVER, S-9, PCB; Method: PREINCUBATION
Activity calls are given as the source filed them. How the calls were made is not given here.
Your response should consist of one outcome taken from yes (1) = active, no (0) = inactive

# chemSmiles, testedTarget, className
data = [
    ("Nc1ncnc2nc(-c3ccc([N+](=O)[O-])cc3)[nH]c12", "CCRIS mutagenicity, Ames/micronucleus/aberration tests", "yes (1)"),
    ("O=[N+]([O-])c1ccc(CNc2ncnc3nc[nH]c23)cc1", "CCRIS mutagenicity, Ames/micronucleus/aberration tests", "no (0)"),
]

Incoming: Outcome? `Nc1nc(-c2ccc([N+](=O)[O-])cc2)nc2c1ncn2-c1ccc([N+](=O)[O-])cc1`
Outgoing: yes (1)

Incoming: Follow-up item: `O=[N+]([O-])c1ccc(Nc2ncnc3nc[nH]c23)cc1`
Outgoing: no (0)

---

- Tested on: CCRIS mutagenicity, Ames/micronucleus/aberration tests
- assayMethodText: CCRIS mutagenicity studies
- conditionsUsed: Test System: AMES SALMONELLA TYPHIMURIUM; Strain/Indicator: TA97; Metabolic Activation: HAMSTER, LIVER, S-9, AROCLOR 1254; Method: PREINCUBATION
Activity calls are given as the source filed them. No rule for the calls is given here.

# compound, mutagenic call
rows = [
    ("C[C@@H]1Cc2c(Cl)cc(C(=O)NC(Cc3ccccc3)C(=O)O)c(O)c2C(=O)O1 (some centres undefined)", "inactive; negative"),
    ("c1ccc(N2CCNCC2)cc1", "inactive; negative"),
    ("C[C@](N)(Cc1ccc(O)c(O)c1)C(=O)O", "inactive; negative"),
]
